Target: T1, human gastric inhibitory peptide receptor (GIPR) (human, UniProt P48546 22-466)
T1 sequence (looked up): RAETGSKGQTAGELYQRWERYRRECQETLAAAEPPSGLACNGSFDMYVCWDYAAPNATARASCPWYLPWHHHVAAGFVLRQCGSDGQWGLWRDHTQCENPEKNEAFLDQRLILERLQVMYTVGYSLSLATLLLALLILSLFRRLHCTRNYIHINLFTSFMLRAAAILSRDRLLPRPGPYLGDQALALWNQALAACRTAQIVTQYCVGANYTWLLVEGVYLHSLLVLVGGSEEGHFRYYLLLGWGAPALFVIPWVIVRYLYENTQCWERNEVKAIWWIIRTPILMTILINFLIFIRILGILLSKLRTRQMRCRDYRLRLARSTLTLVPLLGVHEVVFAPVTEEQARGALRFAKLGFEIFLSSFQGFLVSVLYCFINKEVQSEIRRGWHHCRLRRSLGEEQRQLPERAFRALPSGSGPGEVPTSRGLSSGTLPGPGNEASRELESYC
Test: cell-based or functional assay

{"Binder": "YXEGTFTSDYSILLDKKAQQAFIEYLIEGGPSSGAPPPS (Aib2, (2-[2-(2-Amino-ethoxy)-ethoxy]-acetyl)2-(γ-Glu)-CO-(CH2)18-CO2H on K17, C-terminal NH2) [Example 254]", "hGIPR cAMP Rel EC50": "0.215 nM"}
{"Binder": "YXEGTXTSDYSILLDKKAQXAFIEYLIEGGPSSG (Aib2, αMeF(2F)6, (2-[2-(2-Amino-ethoxy)-ethoxy]-acetyl)2-(γ-Glu)-CO-(CH2)16-CO2H on K17, Aib20, C-terminal NH2) [Example 302]", "hGIPR cAMP Rel EC50": "0.0308 nM"}
{"Binder": "YXEGTXTSDYSILLDXKAQXEFIXYLIEGGPSSGAPPPS (Aib2, αMeF(2F)6, Orn16, (2-[2-(2-Amino-ethoxy)-ethoxy]-acetyl)2-(γ-Glu)-CO-(CH2)16-CO2H on K17, Aib20, D-Glu24, C-terminal NH2) [Example 248]", "hGIPR cAMP Rel EC50": "0.0328 nM"}
